System: OVCAR-8
procedureDetails: NCI tumour cell line growth inhibition, 48 h
Activity calls are given as the source filed them. Cut-off read from the data, not from the text of the source: active = GI50 up to about 1.1 µM and inactive = higher.
Provide the reported GI50 of each item.

compound="CSc1nc2c(nc(N)n2C2OCC(O)C(O)C2O)c(=O)n1C (stereo unspecified)" assayvalue="> 100 µM (inactive)"

Quick one: give me GI50 for each item below, same order please.
1. O=c1oc2c(ccc3occc32)c(N2CCCCC2)c1-c1ccccc1
2. COC(=O)/C(=N/O)C(C(=O)OC)C(=O)C(=O)Nc1c(Cl)cc(C)cc1S(=O)(=O)O (stereo unspecified)
3. COc1ccc(-c2cc(C(=O)Nc3cccc(C(F)(F)F)c3)nc(S)n2)cc1
4. O=C(CC(=O)n1nc(-c2ccccc2)c(/N=N/c2ccc(Cl)cc2)c1-c1ccccc1)Nc1ccc(Cl)cc1

**Result**
> 100 µM (inactive)
> 100 µM (inactive)
> 100 µM (inactive)
63.4 µM (inactive)

**Query** Which measured GI50 value corresponds to COC(=O)C1=C(O)C(O)=C(C(=O)OC)C1 ?
**Result** > 100 µM (inactive)

* * *

System: IGROV-1
procedureDetails: NCI tumour cell line growth inhibition, 48 h
Active and inactive are the calls of the source. Cut-off read from the data, not from the text of the source: active = GI50 up to about 1.1 µM and inactive = higher.
Result category, one only: 1 (active), -1 (inactive)

Some entries whose results are on file:
compound="COC(=O)CNC(=O)Nc1cc(N2C(=O)ON3C2C(C)(C)N(O)C3(C)C)ccc1C (centres undefined)" targetofassay=IGROV-1 classification=-1
compound="Clc1ccc(OCC2NC3CCC2CC3)cn1 (centres undefined)" targetofassay=IGROV-1 classification=-1
compound=Cc1cc2c(=O)[nH]nc(N)c2c(N)n1 targetofassay=IGROV-1 classification=-1
compound=Cc1cc(S(=O)(=O)NC2=Nc3cccc(F)c3CN2)c(S)cc1Cl targetofassay=IGROV-1 classification=-1
compound="CC(=O)O[C@H]1CC2C(C3CCC(C(C)CCC(N)=O)[C@]31C)[C@H](OC(C)=O)C[C@@H]1CC3(CC[C@]21C)OOC1(CC[C@]2(C)C4C[C@H](OC(C)=O)[C@]5(C)C(C(C)CCC(N)=O)CCC5C4[C@H](OC(C)=O)C[C@@H]2C1)OO3 (some centres undefined)" targetofassay=IGROV-1 classification=-1

**Query** What classification did CCC12CCCNC1c1c(n(C)c3ccccc13)C(C(=O)OC)C2 (centres undefined) end up with in this test?
**Result** -1

**Query** What classification did CCCCCCCC(=O)OCC(COC(=O)C(C)(C)C)OC(=O)Cc1ccccc1 (centres undefined) end up with in this test?
**Result** -1

**Query** What classification did N#Cc1ccc(OC(=O)c2ccc(NC(=N)N)cc2)cc1.c1ccncc1 end up with in this test?
**Result** -1

**Query** What classification did CN(CCc1ccccn1)C(=S)N/N=C(\c1ccccc1)c1ccccn1 end up with in this test?
**Result** 1

* * *

Tested on: SK-OV-3
procedureDetails: NCI tumour cell line growth inhibition, 48 h
Active and inactive are the calls of the source. Cut-off read from the data, not from the text of the source: active = GI50 up to about 1.1 µM and inactive = higher.
Result category, one only: y = active, n = inactive

Some entries whose results are on file:
molecule=CCOC(=O)/C=C/c1c[nH]c(=O)[nH]c1=O targetofassay=SK-OV-3 classification=n
molecule="COC(=O)C1C(OC(=O)c2ccccc2)CC2CCC1N2C(N)=O (stereo not drawn)" targetofassay=SK-OV-3 classification=n

**Query** What classification did O=C1NC(N2CCCCC2)=N/C1=C\c1ccccc1 end up with in this test?
**Result** n

**Query** What classification did COc1ccc(-c2nc(SCC(=O)N/N=C/c3ccc(O)c(OC)c3)[nH]c2-c2ccc(OC)cc2)cc1 end up with in this test?
**Result** n

**Query** What classification did CN1CCN(c2nc3cc(F)ccc3n3cccc23)CC1 end up with in this test?
**Result** n

**Query** What classification did COc1ccc(C(=O)/C=C/c2ccncc2)cc1OC end up with in this test?
**Result** n

**Query** What classification did Cc1cc(S(=O)(=O)n2ccnc2Oc2cccc(Cl)c2)c(SSc2cc(Cl)c(C)cc2S(=O)(=O)n2ccnc2Oc2cccc(Cl)c2)cc1Cl end up with in this test?
**Result** n

**Query** What classification did O=CNNC(=O)CSc1nc2ccc(I)cc2c(=O)n1Cc1ccccc1 end up with in this test?
**Result** n

* * *

Provide the reported GI50 of each item.
Tested on: SK-MEL-28
procedureDetails: NCI tumour cell line growth inhibition, 48 h
Active and inactive are the calls of the source. Rule as the data show it: active = GI50 up to about 1.1 µM and inactive = higher. Where a SMILES comes first, the peptide text is derived from it. [ ]: non-standard residue; d: D form. The star is where a group is joined. mTyr = N[CH](Cc1cccc(O)c1)C(=O)O; Cbz = O=C(OCc1ccccc1)*; OBn = c1ccc(CO*)cc1

Recorded GI50, per entry:
compound=COC(=O)C1(C(=O)OC)C/C(C)=C(/C)SCCCS1 recordedmetric=GI50 assayvalue="> 100 µM (inactive)"
compound="CC1(c2cccc(Cl)c2)CC(c2cccc(Cl)c2)=C(C#N)C(=C(C#N)C#N)N1 (stereo unspecified)" recordedmetric=GI50 assayvalue="20.7 µM (inactive)"
compound=C=C1c2ccccc2N(S(=O)(=O)c2ccc(C)cc2)C12CCCCC2 recordedmetric=GI50 assayvalue="45.2 µM (inactive)"

Quick one: give me GI50 for each item below, same order please.
1. CC(C)(C)c1ccc(OCCOc2ccc(C(C)(C)C)cc2N)c(N)c1
2. C/C(=N/O)c1cccc(Nc2nc3ccc(Cl)cc3c3[nH]c4ccccc4c23)c1
3. CC1OC=CC(=O)C1O (stereo unspecified)
4. O=C(O)CCSCCCN1C(=O)c2ccccc2C1=O
5. CCOC(=O)c1ccc(-n2cnc(-c3ccc([N+](=O)[O-])cc3)c2)cc1
6. O=C(NCCCNCCN1C(=O)c2cccc3cc([N+](=O)[O-])cc(c23)C1=O)c1cc(-c2ccccc2)nc2ccccc12
7. COc1cc(O)c(C(=O)/C=C/c2ccc(O)cc2)cc1Oc1ccc(C(=O)/C=C/c2ccc(O)cc2)c(O)c1
8. CCCCCCCCOC(CO)CO

**Result**
1. > 100 µM (inactive)
2. 2.12 µM (inactive)
3. > 100 µM (inactive)
4. > 100 µM (inactive)
5. > 100 µM (inactive)
6. 1.85 µM (inactive)
7. 1.95 µM (inactive)
8. > 100 µM (inactive)

Quick one: give me GI50 for each item below, same order please.
1. CN1C(=O)C(O)C[C@@H]1c1ccc(F)cc1 (stereo partly specified)
2. CCN1CCN(c2ccc(Nc3ccnc4ccc5c(nnn5C)c34)cc2)CC1
3. O=C1NC(N2CCCCC2)=N/C1=C\c1ccccc1
4. O=C(NNc1ccc([N+](=O)[O-])cc1[N+](=O)[O-])/C(O)=C\C(=O)c1ccccc1
5. C/C=C1\CC(C(=O)OCC)CCCCCCC1=O (stereo unspecified)
6. COC(=O)c1c2c(cc3c1CC1(Cc4cc5c(c(C)c4C1)CCC5)C3)CCC2 (stereo unspecified)

**Result**
1. > 100 µM (inactive)
2. 11.1 µM (inactive)
3. > 100 µM (inactive)
4. 23.5 µM (inactive)
5. > 100 µM (inactive)
6. > 100 µM (inactive)

Quick one: give me GI50 for each item below, same order please.
1. [N-]=[N+]=NC1(N=[N+]=[N-])C(=O)NN=C(c2ccccc2)C1=O (stereo unspecified)
2. COC(=O)C(Cc1cccc(O)c1)NC(=O)C(CC(=O)OCc1ccccc1)NC(=O)OCc1ccccc1 (stereo unspecified) (Cbz-Asp(OBn)-[mTyr]-OMe; configuration not given here)
3. Cc1cc(S(=O)(=O)NC2=NNC(C)CN2)c(S)cc1Cl (stereo unspecified)
4. Nc1nc(Cl)cc(NCC2(CO)CC(O)C2)n1 (stereo unspecified)

**Result**
1: 16.3 µM (inactive); 2: > 100 µM (inactive); 3: 41.6 µM (inactive); 4: > 100 µM (inactive)

* * *

Tested on: NCI-H23
procedureDetails: NCI tumour cell line growth inhibition, 48 h
Active and inactive are the calls of the source. Rule as the data show it: active = GI50 up to about 1.1 µM and inactive = higher.
Result category, one only: active, inactive

compound="CC(C)(Cl)C(Br)CC/C(CBr)=C(/Cl)CCl.CC(C)(Cl)C(Br)CC/C(CBr)=C(\\Cl)CCl (configuration not stated)" classification=inactive

**Query** What classification did NCCSc1nc2ccccc2s1 end up with in this test?
**Result** inactive

**Query** What classification did O=C(Nc1ccccc1C(=O)O)C(=Cc1ccccc1O)NC(=O)c1ccccc1 end up with in this test?
**Result** inactive

**Query** What classification did O=C1CNNC(Cn2nc(-c3ccccc3)c3ccccc3c2=O)=N1 end up with in this test?
**Result** inactive

**Query** What classification did CCOC(=O)N1CCC(=C2c3ccc(Cl)cc3CCc3cccnc32)CC1 end up with in this test?
**Result** inactive

**Query** What classification did O=C(Cc1ccccc1)Oc1ccc2c(-c3ccccc3)c(C(=O)Nc3ccc(Cl)cc3)c(=O)oc2c1 end up with in this test?
**Result** inactive
